protocol text: Cytotoxicity (CC50), non-malignant MCF-10A breast cells
Format: cell-based
measurement setup: human, MCF-10A cells (non-malignant breast cells); 24 h incubation; read-out: Non-Malignant Cells CC50, MCF10A

>  <compound>
C=CC(=O)NNC(=O)c1cc(Cl)ccc1Cl [1h, N^2-Acryloyl-2,5-dichlorobenzohydrazide]

>  <readout units>
µM

>  <CC50 at 24 h>
12.9

$$$$
>  <compound>
C=CC(=O)NNC(=O)c1ccccc1 [1a, N^2-Acryloylbenzohydrazide]

>  <readout units>
µM

>  <CC50 at 24 h>
13.7

$$$$
>  <compound>
C=CC(=O)NNC(=O)c1ccc(OC)cc1 [1l, N^2-Acryloyl-4-methoxylbenzohydrazide]

>  <readout units>
µM

>  <CC50 at 24 h>
18.1

$$$$
>  <compound>
C=CC(=O)NNC(=O)c1ccc(Cl)cc1 [1d, N^2-Acryloyl-4-chlorobenzohydrazide]

>  <readout units>
µM

>  <CC50 at 24 h>
6.87

$$$$
